- Target Entity: CDK1/CyclinB (Homo sapiens)
- Sequence (P06493 whole entry): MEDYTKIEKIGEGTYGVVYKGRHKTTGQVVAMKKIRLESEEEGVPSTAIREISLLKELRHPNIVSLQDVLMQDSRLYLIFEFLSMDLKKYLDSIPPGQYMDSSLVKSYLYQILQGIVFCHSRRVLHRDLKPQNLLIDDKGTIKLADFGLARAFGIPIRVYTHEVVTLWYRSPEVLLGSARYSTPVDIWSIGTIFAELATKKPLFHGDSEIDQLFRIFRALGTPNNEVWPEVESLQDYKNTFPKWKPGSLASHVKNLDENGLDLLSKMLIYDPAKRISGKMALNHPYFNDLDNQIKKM
- Sequence (P14635 whole entry partner): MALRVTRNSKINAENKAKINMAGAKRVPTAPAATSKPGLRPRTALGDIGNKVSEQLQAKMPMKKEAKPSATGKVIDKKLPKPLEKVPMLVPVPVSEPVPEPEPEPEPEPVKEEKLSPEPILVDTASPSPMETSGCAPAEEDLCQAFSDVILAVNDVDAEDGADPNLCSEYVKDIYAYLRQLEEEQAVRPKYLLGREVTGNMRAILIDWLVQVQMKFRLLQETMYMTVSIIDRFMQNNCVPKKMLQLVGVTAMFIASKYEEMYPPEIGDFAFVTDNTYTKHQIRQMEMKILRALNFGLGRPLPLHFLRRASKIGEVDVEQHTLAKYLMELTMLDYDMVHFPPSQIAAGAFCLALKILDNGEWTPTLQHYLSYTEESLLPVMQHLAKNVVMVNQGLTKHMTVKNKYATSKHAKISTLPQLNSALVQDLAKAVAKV
- Protocol Notes: Determination of CDK activity (Caliper mobility shift, FAM-P8 peptide): CDK1
- Format: biochemical
- Study Conditions: CDK1/CyclinB; read-out: CDK1 enzymatic inhibitory activity (IC50)
Value Type: IC50

# example entries with known answers
CCN1CCC(=Cc2ccc(Nc3ncc(F)c(-c4cc(F)c5nc(C)n(C(C)C)c5c4)n3)nc2)CC1 [Example 57] : 0.1 to 0.5 µM
CCC(c1ccc(Nc2ncc(F)c(-c3cc(F)c4nc(C)n(C(C)C)c4c3)n2)nc1)N1CCN(CC)CC1 (single isomer, unassigned) [Example 2] : 10 to 100 µM
Cc1nc2c(F)cc(-c3nc(Nc4ccc([C@H](C)C5CCN(C)CC5)cn4)ncc3F)cc2n1C(C)C (single isomer, unassigned) [Example 21] : 0.1 to 0.5 µM
CCN1CCC([C@H](OC)c2ccc(Nc3ncc(F)c(-c4cc(F)c5nc(C)n(C(C)C)c5c4)n3)nc2)CC1 [Example 46] : 0.1 to 0.5 µM

Now, please, on to the next compound.
Inquiry: Consider the compound COCCCN1CCC([C@@H](C)c2ccc(Nc3ncc(F)c(-c4cc(F)c5nc(C)n(C(C)C)c5c4)n3)nc2)CC1 [Example 81] and give its recorded IC50.
Reply text: 0.1 to 0.5 µM

###

- Target Entity: CDK6/cycD3 (Homo sapiens, UniProt Q00534)
- Sequence (Q00534 whole entry): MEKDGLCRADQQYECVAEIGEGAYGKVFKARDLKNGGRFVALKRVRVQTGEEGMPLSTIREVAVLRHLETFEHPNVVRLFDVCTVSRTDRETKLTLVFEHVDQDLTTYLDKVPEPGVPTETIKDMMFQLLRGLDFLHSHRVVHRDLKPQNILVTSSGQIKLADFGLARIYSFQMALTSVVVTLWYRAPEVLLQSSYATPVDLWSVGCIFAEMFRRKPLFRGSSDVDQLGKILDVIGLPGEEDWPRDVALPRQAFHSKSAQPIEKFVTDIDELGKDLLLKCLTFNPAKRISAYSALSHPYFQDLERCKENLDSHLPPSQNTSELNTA
- Sequence (P30281 whole entry partner): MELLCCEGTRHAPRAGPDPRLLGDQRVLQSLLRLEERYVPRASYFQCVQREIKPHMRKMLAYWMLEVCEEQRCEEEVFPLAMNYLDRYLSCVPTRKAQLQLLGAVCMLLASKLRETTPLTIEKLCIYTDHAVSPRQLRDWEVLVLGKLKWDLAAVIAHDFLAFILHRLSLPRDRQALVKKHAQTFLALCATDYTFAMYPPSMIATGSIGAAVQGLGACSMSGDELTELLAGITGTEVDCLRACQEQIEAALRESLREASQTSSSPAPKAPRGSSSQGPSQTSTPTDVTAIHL
- Protocol Notes: Determination of CDK activity (Caliper mobility shift, FAM-P8 peptide): CDK6
- Type: biochemical
- Study Conditions: CDK6/cycD3; read-out: CDK6 enzymatic inhibitory activity (IC50)
Value Type: IC50

Consider the reported IC50 for these compounds:
Cc1nc2c(F)cc(-c3nc(Nc4ccc(C=C5CCN(CC(F)(F)F)CC5)cn4)ncc3F)cc2n1C(C)C : < 100 nM
C=C(c1ccc(Nc2ncc(F)c(-c3cc(F)c4nc(C)n(C(C)C)c4c3)n2)nc1)C1CCNCC1 : 100 to 500 nM
Cc1nc2c(F)cc(-c3nc(Nc4ccc([C@H](C)C5CCN(CC(F)(F)F)CC5)cn4)ncc3F)cc2n1C(C)C : < 100 nM
CC[C@@H](c1ccc(Nc2ncc(F)c(-c3cc(F)c4nc(C)n(C(C)C)c4c3)n2)nc1)N1CCNCC1 : 500 to 1000 nM
CCN1CCC(=C(C)c2ccc(Nc3ncc(F)c(-c4cc(F)c5nc(C)n(C(C)C)c5c4)n3)nc2)CC1 : 100 to 500 nM
CCN1CCC(=Cc2ccc(Nc3ncc(F)c(-c4cc(F)c5nc(C)n(C(C)C)c5c4)n3)nc2)CC1 : < 100 nM
CC[C@@H](c1ccc(Nc2ncc(F)c(-c3cc(F)c4nc(C)n(C(C)C)c4c3)n2)nc1)C1CCN(CC)CC1 : 100 to 500 nM
Cc1nc2c(F)cc(-c3nc(Nc4ccc([C@H](O)C5CCNCC5)cn4)ncc3F)cc2n1C(C)C : 100 to 500 nM

Inquiry: Write down IC50 measured for item CCC(c1ccc(Nc2ncc(F)c(-c3cc(F)c4nc(C)n(C(C)C)c4c3)n2)nc1)N1CCN(CC)CC1 (racemic) [Example 1]
Reply text: 1000 to 10000 nM

Inquiry: Complete the entry with IC50 for CCN1CCC([C@H](OC)c2ccc(Nc3ncc(F)c(-c4cc(F)c5nc(C)n(C(C)C)c5c4)n3)nc2)CC1
Reply text: 100 to 500 nM

Inquiry: Please list IC50 recorded for the compound Cc1nc2c(F)cc(-c3nc(Nc4ccc(C(C)C5CCNCC5)cn4)ncc3F)cc2n1C(C)C (single isomer, unassigned) [Example 19]
Reply text: < 100 nM
